Entries annotated with measured DC50
- TEST TARGET: KRAS (Homo sapiens, UniProt P01116)
- Construct: endogenous in cells; host or cells: KE39 (KRAS amplified) cells
- Sequence (P01116 1-188 isoform P01116-2): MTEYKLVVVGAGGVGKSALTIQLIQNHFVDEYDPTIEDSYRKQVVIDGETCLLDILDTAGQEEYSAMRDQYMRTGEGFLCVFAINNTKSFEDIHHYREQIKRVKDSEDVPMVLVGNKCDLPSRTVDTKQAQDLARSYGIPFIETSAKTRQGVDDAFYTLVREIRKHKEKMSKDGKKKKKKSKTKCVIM
- ASSAY: KRASamp MSD assay
- Type: cell-based
- RUN CONDITIONS: KE39 (KRAS amplified) cells, treated with test compounds for 24 hr, MSD readout of KRAS degradation

COMPOUND	QUANTITY MEASURED	EXPERIMENTAL VALUE
CCc1c(F)ccc2cc(O)cc(-c3ncc4c(N5CCOCC(C)(O)C5)nc(OC[C@@]56CCCN5[C@H](COC(=O)N5CCC(CN7CCC(c8ccc9c(c8)n(C)c(=O)n9C8CCC(=O)NC8=O)CC7)CC5)CC6)nc4c3F)c12 (some centres unmarked)	DC50	< 1 nM

We now examine a further compound.
Q: Look up DC50: Cn1c(=O)n(C2CCC(=O)NC2=O)c2cc(F)c(C3CCN(CC4CCN(C(=O)OC[C@@H]5CC[C@]6(COc7nc(N8CCC[C@@](C)(O)C8)c8cnc(-c9cc(O)cc%10ccc(F)cc9%10)c(F)c8n7)CCCN56)CC4)CC3)cc21 (some centres unmarked)
Ans: < 1 nM
